Ref: PubChem BioAssay (Tox21)

- Method: qHTS assay to identify small molecule agonists of the vitamin D receptor (VDR) signaling pathway - cell viability counter screen (AID 743224); note: nearly all actives have a fitted effect of over 50% in size
- Experimental Conditions: VDR-bla HEK293T viability, CellTiter-Glo luminescence, 16 h; series mostly up to 62.6 µM
Records with an inconclusive call do not appear. Calls of active or inactive are those of the source. Calls come from the whole dose curve; as a rule, active = well fitted cell-killing curve with a large enough effect in the repeat runs; inconclusive = weak or mixed curves, or effect the other way; inactive = no such curve, though single readings can be large or run the other way.
Please reply with one of these outcomes: Yes (active), No (inactive)

Worked examples, 4 compounds total:
Compound: Cc1cc(C)c(/C=C2\C(=O)Nc3ccccc32)[nH]1
Classification: No
//
Compound: C=C(C)c1cccc(C(=C)C)c1
Classification: No
//
Compound: CCc1cccc(CC)c1NC(=O)CN(CC(=O)O)CC(=O)O
Classification: No
//
Compound: COC(C)=O
Classification: No

What did this assay record as the result for "Cc1cccc(C(=O)O)c1O" ?
No

Likewise for "C=CC(=O)Nc1cc2c(Nc3ccc(F)c(Cl)c3)ncnc2cc1OCCCN1CCOCC1" ?
No

Likewise for "C=CC(=O)OCCOC(=O)C=C" ?
No

Likewise for CN1CCN2c3ccccc3Cc3ccccc3C2C1 (centres undefined) ?
No

Likewise for "CCCC1CCC(=O)CC1" ?
No

###

The following compounds are listed with their measured Potency values.
- Method: qHTS RealTime-Glo MT Cell Viability Assay in HEK293 cells - 40 hour (AID 1224874); note: potency is the fitted concentration of half-maximal effect; nearly all actives have a fitted effect of over 50% in size
- Experimental Conditions: RealTime-Glo luminescence
Inconclusive results are not listed. The source made the active and inactive calls. Calls come from the whole dose curve; as a rule, active = well fitted cell-killing curve with a large enough effect in the repeat runs; inconclusive = weak or mixed curves, or effect the other way; inactive = flat fitted curve, though single readings scatter.

Below are worked cases with known answers.
Compound: COC1=C(OC)C(=O)C(CCCCCCCCCCO)=C(C)C1=O
Quantity: Potency
Result: 5.35 µM (active)

Compound: CC[C@H](C)COC(=O)/C=C/c1ccc(N=Cc2ccc(OC)cc2)cc1
Quantity: Potency
Result: 21.8 µM (active)

Compound: CC(C)(C)c1csc(-c2cc3cc(OCc4ccccc4CC(=O)O)ccc3o2)n1
Quantity: Potency
Result: 38.9 µM (active)

Compound: CC(C)(C)c1ccc(C(O)CCCN2CCC(C(O)(c3ccccc3)c3ccccc3)CC2)cc1 (stereo not given)
Quantity: Potency
Result: 4.77 µM (active)

Name the reported Potency value associated with the compound "Cc1nc2n(c(=O)c1CCN1CCC(c3noc4cc(F)ccc34)CC1)CCCC2"
3.01 µM (active)

Likewise for CCN1C(=O)c2ccccc2C1Nc1ccc(OCCN2CCCCC2)cc1 (stereo not given) ?
4.77 µM (active)

Likewise for "C=CC(=O)Nc1cc2c(Nc3ccc(F)c(Cl)c3)ncnc2cc1OCCCN1CCOCC1" ?
9.52 µM (active)

Likewise for "O=C(O)c1cc(O)c2ccccc2c1O" ?
38.9 µM (active)

Likewise for "CCCCCCCCCCC[C@@H](C[C@@H]1OC(=O)[C@H]1CCCCCC)OC(=O)[C@H](CC(C)C)NC=O" ?
6.74 µM (active)

Likewise for "CN1CCC[C@@H]1CCO[C@](C)(c1ccccc1)c1ccc(Cl)cc1" ?
16.9 µM (active)

###

- Method: qHTS assay to identify small molecule agonists of the constitutive androstane receptor (CAR) signaling pathway - cell viability counter screen (AID 1224836); note: nearly all actives have a fitted effect of over 45% in size
- Experimental Conditions: HepG2-CYP2B6-hCAR viability, CellTiter-Fluor, 23 h, PK11195 added to every well; series mostly up to 92.4 µM
Inconclusive results are not listed. Active and inactive are the calls of the source. The call rests on the fitted dose curve; in most records, active means well fitted cell-killing curve with a large enough effect in the repeat runs; inconclusive means weak or mixed curves, or effect the other way; inactive means flat fitted curve, though single readings scatter.
Please reply with one of these outcomes: Yes = active, No = inactive

Worked examples, 5 compounds total:
Compound: Cc1cccc(C(=O)O)c1O
Classification: No
//
Compound: CCCNCCC
Classification: No
//
Compound: C=CCn1c(=O)n(CC=C)c(=O)n(CC=C)c1=O
Classification: No
//
Compound: ClCCl
Classification: No
//
Compound: CC1=Nc2ccccc2C1(C)C
Classification: No

What did this assay record as the result for "C=CC(=O)Nc1cc2c(Nc3ccc(F)c(Cl)c3)ncnc2cc1OCCCN1CCOCC1" ?
Yes

Likewise for "CN(C)Cc1ccccc1O" ?
No

Likewise for "Nc1ccc(Oc2ccc(Cl)cc2)cc1" ?
No

Likewise for "CC1(C)CCC[C@]2(C)[C@H]3CCO[C@]3(C)CC[C@@H]12" ?
No

Likewise for OC1CCC(C2CCCCC2)CC1 (centres undefined) ?
No

Likewise for "CN(C)Cc1cc(C(C)(C)C)c(O)c(C(C)(C)C)c1" ?
No

Likewise for CCCCCCOC(=O)C(C)CC (centres undefined) ?
No

Likewise for "O=C1CCCCCCCCCCCCCCCO1" ?
No

Likewise for "OC[C@@H](O)[C@@H](O)CO" ?
No

Likewise for "CCCC(=O)OCCc1ccccc1" ?
No

Likewise for "O=C(O)c1cccc(C(F)(F)F)c1" ?
No

Likewise for CCCCCC(C)OC(=O)COc1ccc(Cl)c2cccnc12 (centres undefined) ?
No
